test system: Saccharomyces cerevisiae; test: protein stability index of tFT-peptide fusion (C-terminal peptide) (PSI (0-1 scale)); higher = more stable (slower turnover); details: genetic background: wild type; temperature: 30 C
Kindly supply the reported protein stability index values for the records listed here.
Give bare numbers.

Below, each entry is followed by its recorded protein stability index result.
> print(dat)
   macromolecule.sequence        recorded.endpoint  observed
1            CAITAPINRSWN  protein stability index     0.702
2            PSPAHLPPRSPL  protein stability index     0.714
3            PSPLPLSPLPFS  protein stability index     0.687

# per-item lookup of protein stability index; items listed below
1. HGLDPRRGPSGA
2. VYKRNILHLASE
3. LATGCVGVRGHE
4. DNRKIRSEKITP
5. PSDTSHPAWRAN
6. ETHHITHHQWKV
7. GGGLGGLGCFMV

[0.684, 0.681, 0.719, 0.69, 0.708, 0.683, 0.698]

---

tested on: Saccharomyces cerevisiae; assay: protein stability index of tFT-peptide fusion (C-terminal peptide) (PSI (0-1 scale)); higher = more stable (slower turnover); details: genetic background: wild type; temperature: 30 C
RECORDED_ENDPOINT: protein stability index
Answers are plain numbers.

> print(dat)
   macromolecule.sequence        recorded.endpoint  observed
1            PSPAPFPSSPSL  protein stability index     0.687
2            FFLFILYFGSCF  protein stability index     0.399
3            GAVCRRVWVGSW  protein stability index     0.674
4            FSVSSSLSSFRA  protein stability index     0.717
5            AWEETISVIGVM  protein stability index     0.711
6            SKSRKTGWMLIS  protein stability index     0.153

# per-item lookup of protein stability index; items listed below
1. FFSISPLLPLPF
2. CASIVDGFAFRF
3. PASLPPSPPLLL
4. GGGRPGLRALSY
5. RLPASGTPAYSE
6. MQQWSTKSPGVI
7. SFPHLARRLLSP
8. LCHESFDGTFVN

0.714
0.766
0.696
0.747
0.67
0.651
0.673
0.72

# per-item lookup of protein stability index; items listed below
1. TDGLGGGVVGRE
2. WLFAFLCSCFCV
3. SRGAIGGSACFR
4. GSITFFKMVQSG
5. GELGIECREVVG
6. GGGSIAPRSVGT
7. KKNICIKVENSY

1. 0.664
2. 0.71
3. 0.652
4. 0.469
5. 0.704
6. 0.765
7. 0.676

# per-item lookup of protein stability index; items listed below
1. CRGLRRSLGSIL
2. REGVELTRPVTC
3. PCPSPPALPLAP
4. PCIKHNSSLIGP
5. LAPTNAPYPHPM

0.682
0.696
0.696
0.701
0.658

# per-item lookup of protein stability index; items listed below
1. TPIAGGAKLFHV
2. PPSLPHLCRLHL
3. PPPPPPPPLAPP
4. DGGFAAPDVIGA
5. ALVTLRRVVDLV

1. 0.646
2. 0.668
3. 0.694
4. 0.682
5. 0.601

# per-item lookup of protein stability index; items listed below
1. PTSVRPPRRRPR
2. PAPRLEPRSPNV
3. RCSLRLRFIFVR
4. AGSSGGGAWWGE
5. GLSWRLVWVVII
6. SGRTLLPPSLGD

0.745
0.676
0.166
0.681
0.103
0.606

# per-item lookup of protein stability index; items listed below
1. RVGGVVVLGCVG
2. TNFVVRLRFVLF

1. 0.476
2. 0.366

# per-item lookup of protein stability index; items listed below
1. LLLARWASFIMS
2. RITSSLCPPLLR

1: 0.685; 2: 0.695

# per-item lookup of protein stability index; items listed below
1. FAPFVPGPSIKY
2. LVGALISHSILR
3. KKENKSKKIINR
4. CGKPRIHEGRLM
5. AFPSSVILMVFS

[0.705, 0.629, 0.568, 0.691, 0.332]

---

Kindly supply the reported protein stability index values for the records listed here.
test system: Saccharomyces cerevisiae; assay: protein stability index of tFT-peptide fusion (C-terminal peptide) (PSI (0-1 scale)); higher = more stable (slower turnover); details: genetic background: wild type; temperature: 30 C
One number for each entry.

> print(dat)
   macromolecule.sequence        recorded.endpoint  observed
1            SAAVLRWLASAG  protein stability index     0.683
2            SPLHASLPPVSL  protein stability index     0.704
3            RGSRFVAGGGSV  protein stability index     0.702
4            RSSFCGVRAWLA  protein stability index     0.704

Next item in the queue.
# query: protein stability index | item PSPPAPPRGLLP | system: Saccharomyces cerevisiae
0.704

---

system: Saccharomyces cerevisiae; assay: protein stability index of tFT-peptide fusion (C-terminal peptide) (PSI (0-1 scale)); higher = more stable (slower turnover); conditions: genetic background: wild type; temperature: 30 C
Each record's class is read off its protein stability index using these ranges: low interval = under 0.6, middle interval = from 0.6 up to 0.7, high interval = 0.7 and over

For the record RLSLCLAVLFLV , report the class its protein stability index corresponds to.
low interval

For the record PSPATCGSSFSK , report the class its protein stability index corresponds to.
high interval

For the record YTPSPHVRAPRH , report the class its protein stability index corresponds to.
high interval

For the record ISVLSIFVDSFV , report the class its protein stability index corresponds to.
low interval

For the record FLLVLVPFCALF , report the class its protein stability index corresponds to.
low interval

For the record WHVSLRFAFYVF , report the class its protein stability index corresponds to.
low interval

For the record GRGGTYVVLWGV , report the class its protein stability index corresponds to.
middle interval

---

tested on: Saccharomyces cerevisiae; test: protein stability index of tFT-peptide fusion in wild type (PSI (0-1 scale)); higher = more stable (slower turnover); details: genetic background: wild type
Kindly supply the reported protein stability index values for the records listed here.
Give bare numbers.

Below, each entry is followed by its recorded protein stability index result.
> print(dat)
   macromolecule.sequence        recorded.endpoint  observed
1            KGHKKGQKQKIN  protein stability index     0.108
2            GLYMCSVGCWFR  protein stability index     0.264

# query: protein stability index of entry CLVSLPILLFWR
0.0447

---

system: Saccharomyces cerevisiae; assay: protein stability index of tFT-peptide fusion (C-terminal peptide) (PSI (0-1 scale)); higher = more stable (slower turnover); conditions: genetic background: wild type; temperature: 30 C
Each record's class is read off its protein stability index using these ranges: range 1 = under 0.6, range 2 = from 0.6 up to 0.7, range 3 = 0.7 and over

Would you please look over these solved cases?
> print(dat)
    macromolecule.sequence      cat
 1            GVVVGVLLVCGW  range 1
 2            RYAGGHRIGFLI  range 2
 3            ANSRPASSTRLR  range 3
 4            RPPRNLDPSVSI  range 2
 5            EAFARGAPNQTS  range 3
 6            SPPAPPLALPPP  range 3
 7            LSGDIPWSFVPV  range 3
 8            GKRETQVEEGAR  range 3
 9            GIMPVRENCGVF  range 2
10            FLLSILPFISFC  range 1

For the record CVFCRVAVGVDG , report the class its protein stability index corresponds to.
range 1

---

Kindly supply the reported protein stability index values for the records listed here.
test system: Saccharomyces cerevisiae; assay: protein stability index of tFT-peptide fusion (C-terminal peptide) (PSI (0-1 scale)); higher = more stable (slower turnover); conditions: genetic background: wild type; temperature: 30 C
One number for each entry.

Below, each entry is followed by its recorded protein stability index result.
> print(dat)
   macromolecule.sequence  observed
1            LALTFRLQAPLA     0.695
2            TVPAKQHLSGYE     0.679
3            KKGKIKKFIIKK     0.694
4            RDSLGGRSMHGW     0.682
5            TMLLPPPNLATI      0.71
6            HPTRHPPTPPCY     0.704
7            KKINKEINKEKM     0.693
8            GKKPNSGKNKKK     0.694

# query: protein stability index of entry PADPRSSPPVQQ
0.691
